Provide the recorded DC50 for the entries that follow.
Target: UniProt Q9NWZ3
Test: IRAK4 MSD degradation in OCI-LY10
Type: cell-based
Conditions: OCI-LY10, 4 hrs, MSD; read-out: IRAK4 MSD degradation in OCI-LY10 at 4 hrs: Average external-Abs DC50

Item under review: Cn1c(=O)n(C2CCC(=O)NC2=O)c2cccc(CCCOC3CCN(C[C@H]4CC[C@H](n5cc(NC(=O)c6cnn7ccc(N8C[C@H](N)CC(F)(F)C8)nc67)c(C(F)F)n5)CC4)CC3)c21 (some centres unmarked) . Reported DC50?
10 to 100 nM

Item under review: CN(C[C@H]1CC[C@H](n2cc(NC(=O)c3coc(-c4ccnc(NCC5CC5)c4)n3)c(C(F)F)n2)CC1)C1CCN(Cc2cccc3c2C(=O)N(C2CCC(=O)NC2=O)C3=O)CC1 (some centres unmarked) . Reported DC50?
< 10 nM

Item under review: Cn1c(=O)n(C2CCC(=O)NC2=O)c2ccc(CCCCCCC(=O)N3CCN([C@H]4CC[C@H](Nc5ncnc6[nH]cc(C7CCOCC7)c56)CC4)CC3)cc21 (some centres unmarked) . Reported DC50?
> 1000 nM

Item under review: O=C1CCC(N2C(=O)c3cccc(NCCC4CCN(C[C@H]5CC[C@H](n6cc(NC(=O)c7cnn8ccc(N9CCOCC9)nc78)c(C(F)F)n6)CC5)CC4)c3C2=O)C(=O)N1 (some centres unmarked) . Reported DC50?
10 to 100 nM

Item under review: Cn1c(=O)n(C2CCC(=O)NC2=O)c2ccc(CCCOCCOCCOCCOCC(=O)N3CCN([C@H]4CC[C@H](Nc5ncnn6ccc(C7CCOCC7)c56)CC4)CC3)cc21 (some centres unmarked) . Reported DC50?
> 1000 nM

###

Provide the recorded DC50 for the entries that follow.
Target: IRAK4 (Homo sapiens (Human), UniProt Q9NWZ3)
Sequence (Q9NWZ3 whole entry): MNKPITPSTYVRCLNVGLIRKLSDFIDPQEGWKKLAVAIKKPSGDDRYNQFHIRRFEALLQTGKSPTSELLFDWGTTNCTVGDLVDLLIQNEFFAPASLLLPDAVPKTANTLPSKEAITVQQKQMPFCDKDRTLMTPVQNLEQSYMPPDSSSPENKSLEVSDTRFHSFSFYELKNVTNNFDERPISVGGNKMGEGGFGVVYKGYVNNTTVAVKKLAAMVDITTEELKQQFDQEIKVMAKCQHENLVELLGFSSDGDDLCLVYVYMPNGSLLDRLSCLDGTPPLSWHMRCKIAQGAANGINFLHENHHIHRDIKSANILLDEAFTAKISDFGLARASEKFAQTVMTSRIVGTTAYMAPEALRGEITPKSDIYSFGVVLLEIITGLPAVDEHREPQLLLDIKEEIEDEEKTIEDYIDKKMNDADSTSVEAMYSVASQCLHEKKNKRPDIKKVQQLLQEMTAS
Assay: IRAK4 MSD degradation in OCI-LY10
Format: cell-based
Conditions: OCI-LY10, 4 hrs, MSD; read-out: IRAK4 MSD degradation in OCI-LY10 at 4 hrs: Average external-Abs DC50

What DC50 appears in the records for this compound with IRAK4 (Homo sapiens (Human), UniProt Q9NWZ3)? Cn1c(=O)n(C2CCC(=O)NC2=O)c2cccc(CCCOC3CCN([C@H]4CC[C@@H](Nc5ncnc6ccc(C#N)cc56)CC4)CC3)c21 (some centres unmarked)
> 1000 nM

What DC50 appears in the records for this compound with IRAK4 (Homo sapiens (Human), UniProt Q9NWZ3)? CN(CCOCC1CCN(c2ccc3c(c2)n(C)c(=O)n3C2CCC(=O)NC2=O)CC1)C[C@H]1CC[C@H](n2cc(NC(=O)c3coc(-c4ccnc(NCC5CC5)c4)n3)c(C(F)F)n2)CC1 (some centres unmarked)
100 to 1000 nM

What DC50 appears in the records for this compound with IRAK4 (Homo sapiens (Human), UniProt Q9NWZ3)? Cn1c(=O)n(C2CCC(=O)NC2=O)c2cccc(CN3CCC4(CC3)CCN(C[C@H]3CC[C@H](n5cc(NC(=O)c6coc(-c7ccnc(NCC8CC8)c7)n6)c(C(F)F)n5)CC3)CC4)c21 (some centres unmarked)
10 to 100 nM

What DC50 appears in the records for this compound with IRAK4 (Homo sapiens (Human), UniProt Q9NWZ3)? Cn1c(=O)n(C2CCC(=O)NC2=O)c2cccc(CCCOCC3CCN(C[C@H]4CC[C@H](n5cc(NC(=O)c6coc(-c7ccnc(NCC8CC8)c7)n6)c(C(F)F)n5)CC4)CC3)c21 (some centres unmarked)
< 10 nM

What DC50 appears in the records for this compound with IRAK4 (Homo sapiens (Human), UniProt Q9NWZ3)? CC[C@@H]1[C@H](F)C(=O)N[C@@H]1COc1ncc(C#C[C@H]2CC[C@H](CN3CCO[C@@H](COCCCNc4cccc5c4C(=O)N(C4CCC(=O)NC4=O)C5=O)C3)CC2)c2cc(C(N)=O)c(OC)cc12 (some centres unmarked)
100 to 1000 nM

###

Target: IRAK4 (Homo sapiens (Human))
Experiment: IRAK4 MSD degradation in OCI-LY10
Assay type: cell-based
Conditions: OCI-LY10, 4 hrs; read-out: IRAK4 MSD degradation in OCI-LY10 at 4 hrs: DC50
Provide the recorded DC50 for the entries that follow.

Item under review: Cn1c(=O)n(C2CCC(=O)NC2=O)c2cccc(CCCOC3CCN(C[C@H]4CC[C@H](n5cc(NC(=O)c6cnn7ccc(N8CCOC(C)(C)C8)nc67)c(C(F)F)n5)CC4)CC3)c21 (stereo partly shown) [I-539] . Reported DC50?
10 to 100 nM

Item under review: CN(CCc1ccc(CNc2cccc3c2C(=O)N(C2CCC(=O)N(C)C2=O)C3=O)cc1)C[C@H]1CC[C@H](n2cc(NC(=O)c3cnn4ccc(N5C[C@H]6CC5CO6)nc34)c(C(F)F)n2)CC1 (stereo partly shown) [I-452] . Reported DC50?
100 to 1000 nM

Item under review: C[C@@H](CCc1cccc2c1n(C)c(=O)n2C1CCC(=O)NC1=O)OC1CCN(C[C@H]2CC[C@H](n3cc(NC(=O)c4cnn5ccc(N6C[C@H]7C[C@@H]6CO7)cc45)c(C(F)F)n3)CC2)CC1 (stereo partly shown) [I-545] . Reported DC50?
< 10 nM

Item under review: O=C1CCC(N2C(=O)c3cccc(NCC(=O)N4CC5(CCN(C[C@H]6CC[C@H](n7cc(NC(=O)c8cnn9ccc(N%10CCOCC%10)nc89)c(C(F)F)n7)CC6)CC5)C4)c3C2=O)C(=O)N1 (stereo partly shown) [I-443] . Reported DC50?
< 10 nM

Item under review: O=C1CCC(N2C(=O)c3cccc(NCC4CCN(C[C@H]5CC[C@H](n6cc(NC(=O)c7cnn8ccc(N9C[C@H]%10CC9CO%10)nc78)c(C(F)F)n6)CC5)CC4)c3C2=O)C(=O)N1 (stereo partly shown) [I-442] . Reported DC50?
100 to 1000 nM

Item under review: Cn1c(=O)n(C2CCC(=O)NC2=O)c2cccc(CCCOC3CCN(C[C@H]4CC[C@H](n5ncc(NC(=O)c6cnn7ccc(N8CCOCC8)nc67)c5C(F)F)CC4)CC3)c21 (stereo partly shown) [I-468] . Reported DC50?
100 to 1000 nM

Item under review: C[C@H](C#Cc1cccc2c1N(C)C(=O)C2C1CCC(=O)NC1=O)OC1CCN(C[C@H]2CC[C@H](n3cc(NC(=O)c4cnn5ccc(N6C[C@H]7C[C@@H]6CO7)nc45)c(C(F)F)n3)CC2)CC1 (stereo partly shown) [I-555] . Reported DC50?
< 10 nM

Item under review: CN(CC(CCCOCCCc1cccc2c1n(C)c(=O)n2C1CCC(=O)NC1=O)C(=O)O)C[C@H]1CC[C@H](n2cc(NC(=O)c3cnn4ccc(N5C[C@H]6C[C@@H]5CO6)nc34)c(C(F)F)n2)CC1 (stereo partly shown) [I-495] . Reported DC50?
100 to 1000 nM

Item under review: Cn1c(=O)n(C2CCC(=O)NC2=O)c2ccc(C#CCCCNC[C@H]3CC[C@H](n4cc(NC(=O)c5cnn6ccc(N7C[C@H]8C[C@@H]7CO8)nc56)c(C(F)F)n4)CC3)cc21 (stereo in doubt) [I-512] . Reported DC50?
> 1000 nM

Item under review: Cn1c(=O)n(C2CCC(=O)NC2=O)c2cccc(CCCOC[C@@H]3CN(C[C@H]4CC[C@H](n5cc(NC(=O)c6cnn7ccc(N8CCOCC8)nc67)c(C(F)F)n5)CC4)CCO3)c21 (stereo partly shown) [I-448] . Reported DC50?
10 to 100 nM

###

Provide the recorded IC50 for the entries that follow.
System: OCI-LY10
Assay: CTG Cell Viability Assay - OCI-LY10
Assay type: cell-based, human
Conditions: Homo sapiens, OCI-Ly10, 96 h, OCI-LY10, 4 days; read-out: CTG Cell Viability Assay - OCI-LY10: Average external-IC50

Item under review: O=C1CCC(n2c(=O)oc3c(CCCOCCNC(=O)[C@H]4CC[C@H](n5cc(NC(=O)c6coc(-c7ccnc(NCC8CC8)c7)n6)c(C(F)F)n5)CC4)cccc32)C(=O)N1 (some centres unmarked) [I-5] . Reported IC50?
< 50 nM

Item under review: CN(C[C@H]1CC[C@H](n2cc3cc(NC(=O)c4cccc(C(F)(F)F)n4)c(C(C)(C)O)cc3n2)CC1)C1CCC2(CC1)CC(CNc1cccc3c1C(=O)N(C1CCC(=O)NC1=O)C3=O)C2 (some centres unmarked) [I-331] . Reported IC50?
< 50 nM

Item under review: Cn1c(=O)n(C2CCC(=O)NC2=O)c2cccc(CCCN3CCOC4(CCN(C(=O)c5ccc(-n6cc(NC(=O)c7cnn8ccc(N9C[C@H]%10C[C@@H]9CO%10)nc78)c(C(F)F)n6)cc5)CC4)C3)c21 (some centres unmarked) [I-424] . Reported IC50?
> 1000 nM

Item under review: Cn1c(=O)n(C2CCC(=O)NC2=O)c2cccc(C[C@H]3CC[C@H](N(C)C[C@H]4CC[C@H](n5cc(NC(=O)c6cnn7ccc(N8C[C@H]9C[C@@H]8CO9)nc67)c(C(F)F)n5)CC4)CC3)c21 (some centres unmarked) [I-508] . Reported IC50?
> 1000 nM

Item under review: C[C@H]1CN(c2ccn3ncc(C(=O)Nc4cn([C@H]5CC[C@H](CN6CCC(OCCCc7cccc8c7n(C)c(=O)n8C7CCC(=O)NC7=O)CC6)CC5)nc4C(F)F)c3n2)C[C@H](C)O1 (some centres unmarked) [I-285] . Reported IC50?
> 1000 nM

Item under review: CN(CCOCCOCCCc1ccc2c(c1)oc(=O)n2C1CCC(=O)NC1=O)C[C@H]1CC[C@H](n2cc(NC(=O)c3coc(-c4ccnc(NCC5CC5)c4)n3)c(C(F)F)n2)CC1 (some centres unmarked) [I-43] . Reported IC50?
> 1000 nM

Item under review: CN(C(=O)c1cnn2ccc(N3CCOCC3)nc12)c1cn([C@H]2CC[C@H](CN3CCC(OCCCNc4cccc5c4C(=O)N(C4CCC(=O)NC4=O)C5=O)CC3)CC2)nc1C(F)F (some centres unmarked) [I-501] . Reported IC50?
50 to 100 nM

Item under review: CN(CCCOCCNc1cccc2c1C(=O)N(C1CCC(=O)NC1=O)C2=O)C[C@H]1CC[C@H](n2cc(NC(=O)c3coc(-c4ccnc(NCC5CC5)c4)n3)c(C(F)F)n2)CC1 (some centres unmarked) [I-168] . Reported IC50?
< 50 nM

Item under review: Cn1c(=O)n(C2CCC(=O)NC2=O)c2cccc(C#CCC3CCN(C[C@H]4CC[C@H](n5cc(NC(=O)c6cnn7ccc(N8CCCOCC8)nc67)c(C(F)F)n5)CC4)CC3)c21 (some centres unmarked) [I-523] . Reported IC50?
> 1000 nM

Item under review: O=C1CCC(N2C(=O)c3cccc(NCCCCCCC[C@H]4CC[C@H](n5cc(NC(=O)c6cnn7ccc(N8C[C@H]9C[C@@H]8CO9)nc67)c(C(F)F)n5)CC4)c3C2=O)C(=O)N1 (some centres unmarked) [I-354] . Reported IC50?
> 1000 nM

Item under review: O=C1CCC(N2C(=O)c3cccc(NC4CC5(CCN(C[C@H]6CC[C@H](n7cc(NC(=O)c8cnn9ccc(N%10C[C@H]%11C[C@@H]%10CO%11)nc89)c(C(F)F)n7)CC6)CC5)C4)c3C2=O)C(=O)N1 (some centres unmarked) [I-381] . Reported IC50?
50 to 100 nM

Item under review: Cn1c(=O)n(C2CCC(=O)NC2=O)c2cccc(C#CCN3CCC4(CC3)CN(C(=O)[C@H]3CC[C@H](n5cc(NC(=O)c6cnn7ccc(N8C[C@H]9C[C@@H]8CO9)nc67)c(C(F)F)n5)CC3)C4)c21 (some centres unmarked) [I-418] . Reported IC50?
> 1000 nM

Item under review: Cn1c(=O)n(C2CCC(=O)NC2=O)c2cccc(CCCOCCCN3CCN([C@H]4CC[C@H](Nc5ncnc6ccc(CC#N)cc56)CC4)CC3)c21 (some centres unmarked) [I-269] . Reported IC50?
> 1000 nM

Item under review: CN(CCN1CCN(c2cccc3c2C(=O)N(C2CCC(=O)NC2=O)C3=O)CC1)C[C@H]1CC[C@H](n2cc(NC(=O)C3CNN4C=CC(N5CCOCC5)=NC34)c(C(F)F)n2)CC1 (some centres unmarked) [I-224] . Reported IC50?
> 1000 nM

Item under review: CN(CCCNc1cccc2c1C(=O)N(C1CCC(=O)NC1=O)C2=O)C1CCN(C[C@H]2CC[C@H](n3cc(NC(=O)c4cnn5ccc(N6CCOCC6)nc45)c(C(F)F)n3)CC2)CC1 (some centres unmarked) [I-231] . Reported IC50?
< 50 nM

Item under review: CN(Cc1ccc(CCNc2cccc3c2C(=O)N(C2CCC(=O)NC2=O)C3=O)cc1)C[C@H]1CC[C@H](n2cc(NC(=O)c3cnn4ccc(N5CCOCC5)nc34)c(C(F)F)n2)CC1 (some centres unmarked) [I-325] . Reported IC50?
> 1000 nM

Item under review: CC[C@@H]1[C@H](F)C(=O)N[C@@H]1COc1ncc(C#CC2CCN(CCCC3CCN(Cc4ccc5c(c4)n(C)c(=O)n5C4CCC(=O)NC4=O)CC3)CC2)c2cc(C(N)=O)c(OC)cc12 (some centres unmarked) [I-193] . Reported IC50?
> 1000 nM

Item under review: Cn1c(=O)n(C2CCC(=O)NC2=O)c2cccc(OC3CC4(CCN(C[C@H]5CC[C@H](n6cc(NC(=O)c7cnn8ccc(N9C[C@H]%10C[C@@H]9CO%10)nc78)c(C(F)F)n6)CC5)CC4)C3)c21 (some centres unmarked) [I-526] . Reported IC50?
> 1000 nM

Item under review: CN1C(=O)C(C2CCC(=O)NC2=O)c2cc(CCCOC3CCN(C[C@H]4CC[C@H](C5N=C(NC(=O)c6cnn7ccc(N8C[C@H]9C[C@@H]8CO9)nc67)C(C(F)F)=N5)CC4)CC3)ccc21 (some centres unmarked) [I-553] . Reported IC50?
> 1000 nM

Item under review: NC[C@H]1CC[C@H](n2cc(NC(=O)c3cnn4ccc(N5CCOCC5)nc34)c(C(F)F)n2)CC1 [I-313] . Reported IC50?
> 1000 nM

Ref: patent US11352350B2
